# ASSAYED TARGET: GHSR-1a (HEK293/GHSR1a cell line) (Homo sapiens, UniProt Q92847)
# Construct: expressed in transfected cells; host or cells: HEK293/GHSR1a cell line
# Sequence (Q92847 whole entry): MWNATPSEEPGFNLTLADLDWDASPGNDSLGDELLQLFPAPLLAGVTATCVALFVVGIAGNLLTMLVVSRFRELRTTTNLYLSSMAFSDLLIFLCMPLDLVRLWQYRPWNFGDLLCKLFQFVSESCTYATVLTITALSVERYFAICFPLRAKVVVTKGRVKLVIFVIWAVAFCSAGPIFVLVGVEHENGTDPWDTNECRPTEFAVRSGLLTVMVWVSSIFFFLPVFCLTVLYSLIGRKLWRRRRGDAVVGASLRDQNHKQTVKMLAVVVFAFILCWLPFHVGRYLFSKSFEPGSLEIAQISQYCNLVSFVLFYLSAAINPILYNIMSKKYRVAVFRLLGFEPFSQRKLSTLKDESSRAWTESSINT
# METHOD SUMMARY: Ghrelin antagonist potency (IC50) with calcium FLIPR assay, ghrelin 10 nM
# Format: cell-based
# CONDITION DESCRIPTION: ghrelin antagonist potency, read-out: Activity IC50
PROPERTY LABEL: pIC50
Please keep in mind that pIC50 is minus log10 of the molar concentration; only the number is needed.

-- ask Entry under review: CC(NC(=O)Nc1ccc(S(=O)(=O)Cc2ccc3c(c2)CNC3)cc1-c1ccncc1)c1ccccc1 (stereo not shown) . Reported pIC50?
-- reply 5.78

-- ask Entry under review: C[C@@H](NC(=O)Nc1ccc(S(=O)(=O)Cc2ccc3c(c2)C(F)CNC3)cc1)c1ccccc1 (stereo partly shown) . Reported pIC50?
-- reply 5.13

-- ask Entry under review: COc1cc(S(=O)(=O)Cc2ccc3c(c2)CCNC3)ccc1NC(=O)N(O)C(C)c1ccccc1 (stereo not shown) . Reported pIC50?
-- reply 7.61

-- ask Entry under review: CC(c1ccccc1)n1c(=O)[nH]c2ccc(S(=O)(=O)Cc3ccc4c(c3)CNC4)cc2c1=O (stereo not shown) . Reported pIC50?
-- reply 6.96

----------
Give pIC50 for every item shown.
# ASSAYED TARGET: GHSR-1a (HEK293/GHSR1a cell line) (Homo sapiens, UniProt Q92847)
# Construct: expressed in transfected cells; host or cells: HEK293/GHSR1a cell line
# METHOD SUMMARY: Ghrelin antagonist potency (IC50) with calcium FLIPR assay, ghrelin 10 nM
# Format: cell-based
# CONDITION DESCRIPTION: ghrelin antagonist potency, read-out: IC50 (Activity)
Please keep in mind that pIC50 is minus log10 of the molar concentration; only the number is needed.

-- ask Entry under review: Cc1oc(=O)oc1CN1CCc2cc(NS(=O)(=O)c3ccc(NC(=O)N[C@@H](C)c4cccc(Cl)c4Cl)cc3)ccc2C1 . Reported pIC50?
-- reply 7.58

-- ask Entry under review: C[C@H](NC(=O)Nc1ccc(S(=O)(=O)Nc2ccc(CC(C)(C)N)cc2)cc1)c1ccc(C#CC2CC2)c(Cl)c1Cl . Reported pIC50?
-- reply 7.63

-- ask Entry under review: CC(NC(=O)Nc1ccc(S(=O)(=O)Nc2ccc(CO)cc2)cc1)c1cccc2ccccc12 (stereo not drawn) . Reported pIC50?
-- reply 6.38

----------
# METHOD SUMMARY: Metabolic stability in mouse liver microsomes
# Type: in vitro ADME
The label is met for Metabolic Stability Study M = mouse below 100 µL/min/mg and not met for Metabolic Stability Study M = mouse equal to or exceeding 100 µL/min/mg.

-- ask Please state whether Metabolic Stability Study M = mouse is below 100 µL/min/mg for C[C@H](NC(=O)Nc1ccc(S(=O)(=O)Nc2ccc(N)cn2)cc1)c1cccc(Cl)c1Cl.Cl
-- reply met

-- ask Please state whether Metabolic Stability Study M = mouse is below 100 µL/min/mg for CC(NC(=O)Nc1ccc(S(=O)(=O)Cc2ccc3c(c2)CN(C)C3)cc1)c1cccc(Cl)c1 (centres unmarked)
-- reply not met

-- ask Please state whether Metabolic Stability Study M = mouse is below 100 µL/min/mg for CC(NC(=O)Nc1ccc(S(=O)(=O)Cc2ccc3c(c2)CNC3)cc1-c1cc[nH]n1)c1ccccc1 (centres unmarked)
-- reply not met

-- ask Please state whether Metabolic Stability Study M = mouse is below 100 µL/min/mg for CC(NC(=O)Nc1ccc(S(=O)(=O)Cc2ccc3c(c2)CNC3)cc1)c1cccc(F)c1 (centres unmarked)
-- reply met

-- ask Please state whether Metabolic Stability Study M = mouse is below 100 µL/min/mg for C[C@H](NC(=O)Nc1ccc(S(=O)(=O)Cc2ccc3c(c2)CNC3)cc1)c1cccc(Cl)c1Cl.Cl
-- reply met

-- ask Please state whether Metabolic Stability Study M = mouse is below 100 µL/min/mg for COc1cc(S(=O)(=O)Cc2ccc3c(c2)CNC3)ccc1NC(=O)NC(C)c1ccccc1F.O=C(O)C(F)(F)F (centres unmarked)
-- reply met

-- ask Please state whether Metabolic Stability Study M = mouse is below 100 µL/min/mg for CC(C)(N)Cc1ccc(NS(=O)(=O)c2ccc(NC(=O)NCc3ccccc3)cc2)cc1.Cl
-- reply met

-- ask Please state whether Metabolic Stability Study M = mouse is below 100 µL/min/mg for CC(NC(=O)Nc1ccc(S(=O)(=O)Cc2cc(F)c3c(c2)CCN(C)C3)cc1)c1cccc(Cl)c1Cl (centres unmarked)
-- reply not met

-- ask Please state whether Metabolic Stability Study M = mouse is below 100 µL/min/mg for CC(NC(=O)Nc1ccc(S(=O)(=O)Cc2ccc3c(c2)CC(C)N(C)C3)cc1)c1cccc(Cl)c1Cl (centres unmarked)
-- reply met

-- ask Please state whether Metabolic Stability Study M = mouse is below 100 µL/min/mg for CN(C)C(C)(C)Cc1ccc(NS(=O)(=O)c2ccc(NC(=O)NCc3cccc(Cl)c3Cl)cc2)cc1
-- reply not met

-- ask Please state whether Metabolic Stability Study M = mouse is below 100 µL/min/mg for C[C@H](NC(=O)Nc1ccc(S(=O)(=O)Nc2ccc(CC(C)(C)O)cc2)cc1)c1cccc(Cl)c1Cl
-- reply met

-- ask Please state whether Metabolic Stability Study M = mouse is below 100 µL/min/mg for COc1cc(S(=O)(=O)Cc2ccc3c(c2)CN(C)C3)ccc1NC(=O)NC(C)c1ccccc1 (centres unmarked)
-- reply met

-- ask Please state whether Metabolic Stability Study M = mouse is below 100 µL/min/mg for COc1cccc(F)c1C(C)NC(=O)Nc1ccc(S(=O)(=O)Cc2ccc3c(c2)CNC3)cc1 (centres unmarked)
-- reply met

-- ask Please state whether Metabolic Stability Study M = mouse is below 100 µL/min/mg for O=C(NCc1ccccc1Cl)Nc1ccc(S(=O)(=O)Cc2ccc3c(c2)CCNC3)cc1
-- reply met

-- ask Please state whether Metabolic Stability Study M = mouse is below 100 µL/min/mg for COc1cccc(C(C)NC(=O)Nc2ccc(S(=O)(=O)Cc3ccc4c(c3)CN(C)C4)cc2)c1 (centres unmarked) [H1326]
-- reply met

-- ask Please state whether Metabolic Stability Study M = mouse is below 100 µL/min/mg for C[C@H](NC(=O)Nc1ccc(S(=O)(=O)Cc2ccc3c(c2)CN(C)C3)cc1)c1ccccc1
-- reply met

-- ask Please state whether Metabolic Stability Study M = mouse is below 100 µL/min/mg for C[C@H](NC(=O)Nc1ccc(S(=O)(=O)Cc2ccc3c(c2)CCNCC3)cc1)c1ccccc1
-- reply met

-- ask Please state whether Metabolic Stability Study M = mouse is below 100 µL/min/mg for CN1Cc2ccc(CS(=O)(=O)c3ccc(NC(=O)NC4CCCc5ccccc54)cc3)cc2C1 (centres unmarked)
-- reply not met

-- ask Please state whether Metabolic Stability Study M = mouse is below 100 µL/min/mg for C[C@H](NC(=O)Nc1ccc(S(=O)(=O)Nc2ccc(CC(C)(C)N(C)C)cc2)cc1)c1cccc(Cl)c1Cl
-- reply met

-- ask Please state whether Metabolic Stability Study M = mouse is below 100 µL/min/mg for COc1cc(S(=O)(=O)Cc2ccc3c(c2)CNC3)ccc1NC(=O)NC(C)c1cccc2ccccc12.O=C(O)C(F)(F)F (centres unmarked)
-- reply met

-- ask Please state whether Metabolic Stability Study M = mouse is below 100 µL/min/mg for COCCN1Cc2ccc(CS(=O)(=O)c3ccc(NC(=O)NC(C)c4ccccc4)cc3)cc2C1 (centres unmarked)
-- reply not met

-- ask Please state whether Metabolic Stability Study M = mouse is below 100 µL/min/mg for COc1cc(NC(=O)NC(C)c2ccccc2)ccc1S(=O)(=O)Cc1ccc2c(c1)CN(C)C2 (centres unmarked)
-- reply met

-- ask Please state whether Metabolic Stability Study M = mouse is below 100 µL/min/mg for C[C@@H](NC(=O)Nc1ccc(S(=O)(=O)Cc2ccc3c(c2)CCN(C)C3)cc1)c1cccc(Cl)c1Cl
-- reply not met

-- ask Please state whether Metabolic Stability Study M = mouse is below 100 µL/min/mg for C[C@@H](NC(=O)Nc1ccc(S(=O)(=O)Cc2ccc3c(c2F)CNC3)cc1)c1ccccc1
-- reply not met

-- ask Please state whether Metabolic Stability Study M = mouse is below 100 µL/min/mg for CC(NC(=O)Nc1ccc(S(=O)(=O)Cc2ccc3c(c2)CN(C)C3)cc1)c1cccc2ccccc12 (centres unmarked)
-- reply not met

-- ask Please state whether Metabolic Stability Study M = mouse is below 100 µL/min/mg for CC(NC(=O)Nc1ccc(S(=O)(=O)Cc2ccc3c(c2)CN(C)C3)cc1)c1ccccc1Cl (centres unmarked)
-- reply not met

-- ask Please state whether Metabolic Stability Study M = mouse is below 100 µL/min/mg for COc1cc(NC(=O)N(O)C(C)c2ccccc2)ccc1S(=O)(=O)Cc1ccc2c(c1)CNC2 (centres unmarked)
-- reply met

-- ask Please state whether Metabolic Stability Study M = mouse is below 100 µL/min/mg for COc1cc(S(=O)(=O)Cc2ccc3c(c2)CNC3)ccc1NC(=O)NC(C)c1ccccc1OC (centres unmarked)
-- reply met
